Test system: Cryptococcus neoformans
Condition: Concentration 32 ug.mL-1; ASSAY_TEST Inhibition of Fungal Growth; detection method Resazurin; Absorption (OD600-OD570); plate type 384well; NBS; CORNING #3640
Description: Antifungal activity against Cryptococcus neoformans H99 ATCC 208821 (CO-ADD:FG_002); MIC in YNB media using NBS plates, by Resazurin OD(600-570)
Entries with a potency or affinity are not part of this list.

Molecule: O=C(N/N=C1/C[C@H]2[C@H](CO)[C@@H]1C[C@@H]2Cl)c1ccncc1
Inhibition (%): -80.47
--
Molecule: O=C(NNC(=O)[C@@H]1C[C@H](C(=O)O)[C@@H]2CCC[C@@H]21)c1ccncc1
Inhibition (%): -51.45
--
Molecule: O=C(NN=CC[C@@H]1[C@@H](COC2CCCCO2)[C@H](OC2CCCCO2)C[C@@H]1O)c1ccncc1 (stereo not given in full)
Inhibition (%): -44.06
--
Molecule: O=C(N/N=C/C[C@@H]1[C@@H](CO)[C@H](O)C[C@@H]1O)c1ccncc1
Inhibition (%): -75.19
--
Molecule: O=C(NN=C[C@H]1[C@@H]2CCO[C@@H]2C[C@@H]1O)c1ccncc1
Inhibition (%): -54.08

====

Test system: Candida albicans
Condition: 32 ug/mL
Description: Antifungal activity against Candida albicans ATCC 90028 (CO-ADD:FG_001); MIC in YNB media using NBS plates, by OD630
Results with a measured potency or affinity are listed apart.
As shown below, each of these compounds has a reported Inhibition value.

Compound: O=C(N/N=C/C[C@@H]1[C@@H](/C=C/[C@@H](O)COc2cccc(Cl)c2)[C@H](O)C[C@@H]1O)c1ccncc1
Inhibition [%]: 0.21

Compound: O=C(N/N=C1/C2C[C@H]3C(C2CO)[C@H]13)c1ccncc1 (stereo not given in full)
Inhibition [%]: 0.37

Compound: O=C(NNC(=O)c1cccc([N+](=O)[O-])c1C(=O)O)c1ccncc1
Inhibition [%]: 1.9

Compound: O=C(N/N=C/C[C@@H]1[C@@H](CO)[C@H](O)C[C@@H]1O)c1ccncc1
Inhibition [%]: 0.37

Compound: O=C(N/N=C/COc1cccc(Cl)c1)c1ccncc1
Inhibition [%]: 1.44

====

Test system: Klebsiella pneumoniae
Condition: Concentration 32 ug.mL-1; ASSAY_TEST Inhibition of Bacterial Growth; detection method Absorption (OD600); MEDIA CAMHB; plate type 384well; NBS; CORNING #3640; time 18 hr
Description: Antibacterial activity against Klebsiella pneumoniae MDR ATCC 70063 (CO-ADD:GN_003); MIC in CAMBH media using NBS plates, by OD(600)
Potency and affinity values are given separately.
Property: Inhibition (%)

Compound: O=C(N/N=C1\C[C@@H]2[C@@H](CO)[C@H]1C[C@H]2Cl)c1ccncc1
Property: Inhibition
Recorded result: 21.63

Compound: COC(=O)CCCCCC[C@@H]1[C@@H](/C=N/NC(=O)c2ccncc2)[C@H](O)C[C@@H]1O
Property: Inhibition
Recorded result: 5.87

Compound: O=C(N/N=C/C[C@@H]1[C@@H](/C=C/[C@@H](O)COc2cccc(Cl)c2)[C@H](O)C[C@@H]1O)c1ccncc1
Property: Inhibition
Recorded result: 18.63

Compound: O=C(N/N=C/C[C@@H]1[C@@H](/C=C/[C@@H](O)COc2ccccc2)[C@H](O)C[C@@H]1O)c1ccncc1
Property: Inhibition
Recorded result: 13.01

Compound: O=C(NN=C[C@H]1[C@H]2CC(O)OC[C@H]2C[C@H]1O)c1ccncc1 (stereo partly specified)
Property: Inhibition
Recorded result: 2.56

Compound: O=C(N/N=C/CCCO)c1ccncc1
Property: Inhibition
Recorded result: 3.72

Compound: O=C(N/N=C/C[C@@H]1[C@@H](CO)[C@H](O)C[C@@H]1O)c1ccncc1
Property: Inhibition
Recorded result: 16.63

Compound: O=C(N/N=C1/C2C[C@H]3C(C2CO)[C@H]13)c1ccncc1 (stereo partly specified)
Property: Inhibition
Recorded result: 15.76

Compound: CC(C)(C)[Si](C)(C)OCC1C2C[C@H]3C1[C@@H]3/C2=N/NC(=O)c1ccncc1 (stereo partly specified)
Property: Inhibition
Recorded result: 15.16

Compound: O=C(NNC(=O)c1ccc([N+](=O)[O-])cc1C(=O)O)c1ccncc1
Property: Inhibition
Recorded result: 17.92

Compound: O=C(N/N=C1\C[C@@H]2[C@H](COC(c3ccccc3)(c3ccccc3)c3ccccc3)C[C@H](CO)[C@@H]2C1)c1ccncc1
Property: Inhibition
Recorded result: 2.31

====

As shown below, each of these compounds has a reported Inhibition value.
System: Candida albicans
Condition: 32 ug/mL
Results with a measured potency or affinity are listed apart.
Property: Inhibition (%)

Compound: O=C(ON/N=C/[C@@H]1[C@@H]2C[C@H](Cl)[C@H]1C[C@H]2O)c1ccncc1
Property: Inhibition
Recorded result: 5.82
//
Compound: O=C(NN=CC[C@@H]1[C@@H](/C=C/[C@@H](O)CCc2ccccc2)[C@H](OC(=O)c2ccccc2)C[C@@H]1O)c1ccncc1
Property: Inhibition
Recorded result: 5.97
//
Compound: COC(=O)CCCCCC[C@@H]1[C@@H](/C=N/NC(=O)c2ccncc2)[C@H](OC(=O)c2ccccc2)C[C@@H]1O
Property: Inhibition
Recorded result: 0.87
//
Compound: O=C(NN=C[C@H]1[C@H]2CC(O)OC[C@H]2C[C@H]1O)c1ccncc1 (stereo partly drawn)
Property: Inhibition
Recorded result: 3.89
//
Compound: O=C(NN=C[C@H]1[C@@H]2CCO[C@@H]2C[C@@H]1O)c1ccncc1
Property: Inhibition
Recorded result: 2.27
//
Compound: O=C(N/N=C1/C[C@H]2[C@H](CO)[C@@H]1C[C@@H]2Cl)c1ccncc1
Property: Inhibition
Recorded result: 2.15
//
Compound: O=C(NNC(c1ccccc1)(c1ccccc1)c1ccccc1)c1ccncc1
Property: Inhibition
Recorded result: 3.62
//
Compound: CC(C)(C)[Si](C)(C)OC[C@H]1[C@H](CC=NNC(=O)c2ccncc2)[C@H](O)C[C@@H]1O[Si](C)(C)C(C)(C)C
Property: Inhibition
Recorded result: 3.64

====

Tested on: Klebsiella pneumoniae
Condition: Concentration 32 ug.mL-1; ASSAY_TEST Inhibition of Bacterial Growth; detection method Absorption (OD600); MEDIA CAMHB; plate type 384well; NBS; CORNING #3640; time 18 hr
Potency and affinity values are given separately.

Smiles entry: O=C(N/N=C1/C[C@@H]2[C@H](C1)[C@H](OC(=O)c1ccccc1)C[C@@H]2OC(=O)c1ccccc1)c1ccncc1
Assay system: Klebsiella pneumoniae
Inhibition: 10.86%
--
Smiles entry: O=C(N/N=C1/C[C@H]2[C@H](CO)[C@@H]1C[C@@H]2Cl)c1ccncc1
Assay system: Klebsiella pneumoniae
Inhibition: 18.7%
--
Smiles entry: O=C(N/N=C1\CC[C@@H]2[C@H]1[C@H](OC(=O)c1ccccc1)C[C@@H]2OC(=O)c1ccccc1)c1ccncc1
Assay system: Klebsiella pneumoniae
Inhibition: 13.57%
--
Smiles entry: O=C(NN=CC[C@@H]1[C@@H](/C=C/[C@@H](O)CCc2ccccc2)[C@H](O)C[C@@H]1O)c1ccncc1
Assay system: Klebsiella pneumoniae
Inhibition: 16.12%

====

As shown below, each of these compounds has a reported Inhibition value.
Test system: Klebsiella pneumoniae
Condition: Concentration 32 ug.mL-1; ASSAY_TEST Inhibition of Bacterial Growth; detection method Absorption (OD600); MEDIA CAMHB; plate type 384well; NBS; CORNING #3640; time 18 hr
Results with a measured potency or affinity are listed apart.

Compound: COC(=O)CCCCCC[C@@H]1[C@@H](/C=N/NC(=O)c2ccncc2)[C@H](OC(=O)c2ccccc2)C[C@@H]1O
Assay system: Klebsiella pneumoniae
Inhibition: 15.74%
//
Compound: O=C(NN=C[C@H]1[C@@H]2CCO[C@@H]2C[C@@H]1O)c1ccncc1
Assay system: Klebsiella pneumoniae
Inhibition: 9.72%
//
Compound: O=C(NN=CC[C@@H]1[C@@H](/C=C/[C@@H](O)CCc2ccccc2)[C@H](OC(=O)c2ccccc2)C[C@@H]1O)c1ccncc1
Assay system: Klebsiella pneumoniae
Inhibition: 14.41%
//
Compound: O=C1C[C@@H]2[C@@H](C=NNC(=O)c3ccncc3)[C@@H](C[C@H]2Cl)O1
Assay system: Klebsiella pneumoniae
Inhibition: 20.62%
//
Compound: O=C(N/N=C/[C@@H]1C[C@H](CO)[C@@H]2CCC[C@@H]21)c1ccncc1
Assay system: Klebsiella pneumoniae
Inhibition: 17.88%
//
Compound: CC(C)(C)[Si](C)(C)O[C@H](/C=C/[C@@H]1[C@@H](CC=NNC(=O)c2ccncc2)[C@@H](O)C[C@H]1O[Si](C)(C)C(C)(C)C)CCc1ccccc1
Assay system: Klebsiella pneumoniae
Inhibition: 11.71%
//
Compound: O=C(N/N=C1/C2C[C@H]3C(C2C(=O)O)[C@@H]13)c1ccncc1 (stereo partly drawn)
Assay system: Klebsiella pneumoniae
Inhibition: 8.85%
//
Compound: COC(=O)C[C@H]1[C@H](/C=N\NC(=O)c2ccncc2)[C@@H](O[Si](C)(C)C(C)(C)C)C[C@@H]1Cl
Assay system: Klebsiella pneumoniae
Inhibition: 21.45%

====

Test system: Candida albicans
Condition: 32 ug/mL
Entries with a potency or affinity are not part of this list.
As shown below, each of these molecules has a reported Inhibition value.

Smiles entry: O=C(NNC(=O)c1ccc([N+](=O)[O-])cc1C(=O)O)c1ccncc1
Inhibition (%): 3.64

Smiles entry: O=C(N/N=C/C[C@@H]1[C@@H](/C=C/[C@@H](O)COc2ccccc2)[C@H](O)C[C@@H]1O)c1ccncc1
Inhibition (%): 0.82

Smiles entry: O=C(N/N=C/[C@@H]1C[C@H](CO)[C@@H]2CCC[C@@H]21)c1ccncc1
Inhibition (%): 0.02

Smiles entry: O=C(N/N=C1\CC[C@@H]2[C@H]1[C@H](OC(=O)c1ccccc1)C[C@@H]2OC(=O)c1ccccc1)c1ccncc1
Inhibition (%): 12.8
